system under test: NHE3 (Homo sapiens)
Construct: expressed in transfected cells
Sequence (P48764 26-834): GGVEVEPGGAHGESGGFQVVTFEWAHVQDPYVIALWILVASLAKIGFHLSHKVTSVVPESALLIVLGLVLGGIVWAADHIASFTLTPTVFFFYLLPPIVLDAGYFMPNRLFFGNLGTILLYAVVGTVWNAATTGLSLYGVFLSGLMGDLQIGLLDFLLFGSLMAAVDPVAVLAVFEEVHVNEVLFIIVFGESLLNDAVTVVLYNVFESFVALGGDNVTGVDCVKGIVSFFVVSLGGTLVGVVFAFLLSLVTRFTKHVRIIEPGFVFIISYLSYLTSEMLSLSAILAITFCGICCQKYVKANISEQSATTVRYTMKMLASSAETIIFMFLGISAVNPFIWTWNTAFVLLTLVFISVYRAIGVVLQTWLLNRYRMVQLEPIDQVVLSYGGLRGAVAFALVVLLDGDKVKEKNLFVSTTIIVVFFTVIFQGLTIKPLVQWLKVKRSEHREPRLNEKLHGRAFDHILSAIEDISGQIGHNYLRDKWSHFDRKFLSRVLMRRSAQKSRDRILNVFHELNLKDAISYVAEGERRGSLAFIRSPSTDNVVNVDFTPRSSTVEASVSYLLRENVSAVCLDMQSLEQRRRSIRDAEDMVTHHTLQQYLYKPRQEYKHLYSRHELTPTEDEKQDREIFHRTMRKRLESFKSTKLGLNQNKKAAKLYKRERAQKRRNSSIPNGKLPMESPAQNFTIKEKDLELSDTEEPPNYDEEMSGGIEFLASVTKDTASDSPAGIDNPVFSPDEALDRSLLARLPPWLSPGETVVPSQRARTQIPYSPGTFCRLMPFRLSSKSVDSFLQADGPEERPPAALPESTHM
Sequence (Q99653 2-195 partner limits assumed): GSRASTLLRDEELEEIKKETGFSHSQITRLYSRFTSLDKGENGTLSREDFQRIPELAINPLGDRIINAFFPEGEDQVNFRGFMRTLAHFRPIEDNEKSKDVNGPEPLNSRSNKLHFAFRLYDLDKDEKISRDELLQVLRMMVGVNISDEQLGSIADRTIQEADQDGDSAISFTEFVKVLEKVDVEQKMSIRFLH
experiment description: Cell-based assay of NHE-3 activity (pre-incubation inhibition), human
stated conditions: human Preincubation, 0-30 μM test compound
pIC50: −log10 of the molar value.
Listed molecules paired with reported pIC50

Worked cases, pIC50 given:
structure notation	readout kind	value observed
Cc1cc(S(=O)(=O)NCCOCCOCCNC(=O)NCCCCNC(=O)NCCOCCOCCNS(=O)(=O)c2cc(C)c(O[C@H]3c4cc(Cl)cc(Cl)c4C[C@@H]3N(C)C)c(C)c2)cc(C)c1O[C@H]1c2cc(Cl)cc(Cl)c2C[C@@H]1N(C)C	pIC50	6.00 to 7.00
CC(=O)N1CCN([C@H]2Cc3c(Cl)cc(Cl)cc3[C@@H]2Oc2ccc(S(=O)(=O)NCCOCCOCCNC(=O)NCCCCNC(=O)NCCOCCOCCNS(=O)(=O)c3ccc(O[C@H]4c5cc(Cl)cc(Cl)c5C[C@@H]4N4CCN(C(C)=O)CC4)c(C)c3)cc2C)CC1	pIC50	6.00 to 7.00
N[C@@H]1CCCN([C@H]2Cc3c(Cl)cc(Cl)cc3[C@@H]2Oc2ccc(S(=O)(=O)NCCCCCCCCNC(=O)NCCCCNC(=O)NCCCCCCCCNS(=O)(=O)c3ccc(O[C@H]4c5cc(Cl)cc(Cl)c5C[C@@H]4N4CCC[C@@H](N)C4)cc3)cc2)C1	pIC50	> 7.00

Next, consider the following molecule.
State, in one line, measured pIC50 of "N#Cc1cc(Cl)cc2c1C[C@H](N1CCCNCC1)[C@H]2Oc1ccc(S(=O)(=O)N[C@H]2CCN(CCOCCNC(=O)NCCCCNC(=O)NCCOCCN3CC[C@H](NS(=O)(=O)c4ccc(O[C@H]5c6cc(Cl)cc(C#N)c6C[C@@H]5N5CCCNCC5)cc4)C3)C2)cc1"
> 7.00
